B1: r11_951_TrROS_Hall (parent)
chain: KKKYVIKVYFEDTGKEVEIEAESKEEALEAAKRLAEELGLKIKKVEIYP

variants of: B1; test: folding stability dG (cDNA display proteolysis); higher = more stable; conditions: PBS, room temperature
Observed Property: folding stability dG (kcal/mol)
Express it in kcal/mol; write the number only.

Examples with their reported folding stability dG follow.
>>> value("A31N")
1.73
>>> value("K3C")
4.24
>>> value("A30Q")
4.44
>>> value("G14T")
4.41

Dear colleague, please send me the reported folding stability dG for Y48W when you can.
4.51

For the variant E11G , give its measured folding stability dG value.
4.49

Please report the measured folding stability dG for K15F
4.38

Check the records and state folding stability dG for E18Q
4.5

Give me measured folding stability dG, please, for this variant: E16S
4.38

Let me know recorded folding stability dG for P49T , thanks.
4.62
